- Tested on: Inhibin beta A chain (activin A)
- Method Description: INHBA (activin A) binders on microarrays, primary screen, biochemical, small-molecule microarray, 635 nm fluorescence scan (AID 1107);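 further: mouse activin A protein probed at 4.33 µg/mL on printed slides; score merges bound-protein fluorescence near 667 nm with spot signal-to-noise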
- Protocol Conditions: small-molecule microarray binding, higher = more signal
Assign a class from recorded composite z-score; defined classes: bottom (below 0.4), middle (0.4 to below 1), top (1 or more)

[[record]]
compound = "C=CCC(OC(C)=O)[C@@H]1[C@@H](N(Cc2ccc(-c3ccccc3)cc2)C(=O)c2ccc(-c3ccccc3)cc2)c2cc(OCCCO)ccc2N1C(=O)Cc1ccc(OC)cc1 (some centres undefined)"
assay_system = "Inhibin beta A chain (activin A)"
category_label = "top"

[[record]]
compound = "COCCOC(=O)N1C(=O)[C@@]2(c3cc(C#CCC(C(=O)OC)C(=O)OC)ccc31)[C@H](c1ccccc1OCCO)N1[C@H](c3ccccc3)[C@H](c3ccccc3)OC(=O)[C@H]1[C@@H]2C(=O)N1CCCCCCC1"
assay_system = "Inhibin beta A chain (activin A)"
category_label = "top"

[[record]]
compound = "O=C/C=C/c1ccccc1Cl"
assay_system = "Inhibin beta A chain (activin A)"
category_label = "bottom"

[[record]]
compound = "CO[C@]12C=C(Br)[C@@H](C[C@@H]1c1ccccc1)[C@@]1(CO1)C2=O"
assay_system = "Inhibin beta A chain (activin A)"
category_label = "middle"

[[record]]
compound = "COC(=O)C(CC#Cc1ccc2c(c1)[C@]1(C(=O)N2)[C@H](C(=O)N2CCCCCCC2)[C@H]2C(=O)O[C@H](c3ccccc3)[C@H](c3ccccc3)N2[C@@H]1c1ccc(O)cc1)C(=O)OC"
assay_system = "Inhibin beta A chain (activin A)"
category_label = "bottom"

[[record]]
compound = "CO[C@@H]1COC(=O)[C@@H]2CCCN2C(=O)CC=C[C@@H](C)[C@H](OC)COC(=O)[C@@H]2CCCN2C(=O)CC=C[C@H]1C"
assay_system = "Inhibin beta A chain (activin A)"
category_label = "top"

[[record]]
compound = "COc1cccc([C@@H]2[C@@H](C)CC[C@H]3C(=O)N(C)[C@@H](C(C)C)C(=O)N23)c1"
assay_system = "Inhibin beta A chain (activin A)"
category_label = "middle"

[[record]]
compound = "C=CCC(OC(C)=O)[C@@H]1[C@@H](N(Cc2ccc(-c3cccc(C(F)(F)F)c3)o2)C(=O)Cc2ccc(F)cc2)c2cc(OCCCO)ccc2N1C(=O)c1ccc(-c2ccccc2)cc1 (some centres undefined)"
assay_system = "Inhibin beta A chain (activin A)"
category_label = "top"

[[record]]
compound = "O=C1C[C@@](C(=O)NCCN2CCOCC2)(c2ccc([N+](=O)[O-])cc2)[C@@H](c2ccc(CO)cc2)N1C1CCCCC1"
assay_system = "Inhibin beta A chain (activin A)"
category_label = "middle"

[[record]]
compound = "CCC1=C2CN(Cc3ccccc3Br)[C@@H]([C@@H](O)Cc3ccccc3)C2C=CCC1 (some centres undefined)"
assay_system = "Inhibin beta A chain (activin A)"
category_label = "middle"

[[record]]
compound = "CC1=C([C@H](O)CCc2ccccc2)[C@H](CO)[C@@H]2C(=O)N(Cc3ccccc3)C(=O)[C@@H]2C1"
assay_system = "Inhibin beta A chain (activin A)"
category_label = "bottom"

[[record]]
compound = "CN1C(=O)C2C=CC(C(O)C3CC=CCC3)N(Nc3ccccc3)C2C1=O (centres undefined)"
assay_system = "Inhibin beta A chain (activin A)"
category_label = "top"

